B1: Ankyrin-3, residues 4094 to 4171; numbered along this chain, Q12955 (parent)
chain: MAIVADHLGLSWTELARELNFSVDEINQIRVENPNSLISQSFMLLKKWVTRDGKNATTDALTSVLTKINRIDIVTLLE

variants of: B1; experiment: abundance fitness (aPCA) (normalised: wild type 0, dead -1); higher = more abundant; growth selection in yeast, the domain comes from the species named; details: Homo sapiens
Quick rule for you: abundance fitness at -0.3 or higher means YES, lower means NO.

| VARIANT_IDENTIFIER | LABEL_VALUE |
| --- | --- |
| L8R | NO |
| T58S | YES |
| I38D | YES |
| S39C | YES |
| E14T | YES |

INPUT: Decide: abundance fitness of V23I >= -0.3?
OUTPUT: YES

INPUT: Decide: abundance fitness of G9V >= -0.3?
OUTPUT: NO

INPUT: Decide: abundance fitness of L77V >= -0.3?
OUTPUT: YES

INPUT: Decide: abundance fitness of L10E >= -0.3?
OUTPUT: YES

INPUT: Decide: abundance fitness of R51G >= -0.3?
OUTPUT: NO

INPUT: Decide: abundance fitness of I68E >= -0.3?
OUTPUT: NO

INPUT: Decide: abundance fitness of W12M >= -0.3?
OUTPUT: NO

INPUT: Decide: abundance fitness of L45S >= -0.3?
OUTPUT: NO

INPUT: Decide: abundance fitness of N55P >= -0.3?
OUTPUT: NO

INPUT: Decide: abundance fitness of D6P >= -0.3?
OUTPUT: YES

INPUT: Decide: abundance fitness of G53F >= -0.3?
OUTPUT: NO

INPUT: Decide: abundance fitness of L44I >= -0.3?
OUTPUT: NO

INPUT: Decide: abundance fitness of R51K >= -0.3?
OUTPUT: NO

INPUT: Decide: abundance fitness of N35V >= -0.3?
OUTPUT: NO

INPUT: Decide: abundance fitness of S11A >= -0.3?
OUTPUT: NO

INPUT: Decide: abundance fitness of L77C >= -0.3?
OUTPUT: YES

Data origin: the Human Domainome abundance scans (Beltran et al. 2025)
